- Tested on: DLD1 NRF2-WT
- PROTOCOL_NOTES: drug sensitivity score (DSS) viability (DSS score); higher = more sensitive; extreme values may be limits of the assay
- EXPERIMENTAL_PARAMETERS: 72 h; CellTiter-Glo viability
Form field: drug sensitivity score (one value per entry).
REPORTED_ENDPOINT: drug sensitivity score

[
  {
    "SMILES_RECORD": "COc1cc(N2CCC(N3CCN(C)CC3)CC2)ccc1Nc1ncc(Cl)c(Nc2ccccc2P(C)(C)=O)n1",
    "EXPERIMENTAL_TARGET": "DLD1 NRF2-WT",
    "ASSAY_RESULT": 1.1
  },
  {
    "SMILES_RECORD": "Cc1ccc(C(=O)Nc2ccc(Oc3cc4cnn(C)c4cc3-c3cn[nH]c3)c(F)c2)c(=O)n1-c1ccc(F)cc1",
    "EXPERIMENTAL_TARGET": "DLD1 NRF2-WT",
    "ASSAY_RESULT": 4.2
  },
  {
    "SMILES_RECORD": "C=C(c1ccc(C(=O)O)cc1)c1cc2c(cc1C)C(C)(C)CCC2(C)C",
    "EXPERIMENTAL_TARGET": "DLD1 NRF2-WT",
    "ASSAY_RESULT": 0
  },
  {
    "SMILES_RECORD": "COc1cc(Nc2ncc3c(n2)-c2ccc(Cl)cc2C(c2c(F)cccc2OC)=NC3)ccc1C(=O)O",
    "EXPERIMENTAL_TARGET": "DLD1 NRF2-WT",
    "ASSAY_RESULT": 10.3
  },
  {
    "SMILES_RECORD": "CCN1CCN(Cc2ccc(Nc3ncc(F)c(-c4cc(F)c5nc(C)n(C(C)C)c5c4)n3)nc2)CC1",
    "EXPERIMENTAL_TARGET": "DLD1 NRF2-WT",
    "ASSAY_RESULT": 11.5
  },
  {
    "SMILES_RECORD": "CCn1c(=O)c(-c2ccc(Cl)cc2Cl)cc2cnc(Nc3ccc(N4CCNCC4)c(F)c3)nc21",
    "EXPERIMENTAL_TARGET": "DLD1 NRF2-WT",
    "ASSAY_RESULT": 9.8
  },
  {
    "SMILES_RECORD": "CCS(=O)(=O)Nc1ccc(Oc2ccc(F)cc2F)c(-c2cn(C)c(=O)c3[nH]ccc23)c1",
    "EXPERIMENTAL_TARGET": "DLD1 NRF2-WT",
    "ASSAY_RESULT": 14.7
  }
]

====

- System: DLD1 NRF2-WT
- PROTOCOL_NOTES: drug sensitivity score (DSS) cytotoxicity (DSS score); higher = more toxic; extreme values may be limits of the assay
- EXPERIMENTAL_PARAMETERS: 72 h; CellTox Green cytotoxicity
REPORTED_ENDPOINT: drug sensitivity score

[
  {
    "COMPOUND": "CC(C)(C)c1cnc(CSc2cnc(NC(=O)C3CCNCC3)s2)o1",
    "EXPERIMENTAL_TARGET": "DLD1 NRF2-WT",
    "ASSAY_RESULT": 0.8
  },
  {
    "COMPOUND": "Cc1ncc(-c2ccnc(Nc3ccc(S(C)(=O)=O)cc3)n2)n1C(C)C",
    "EXPERIMENTAL_TARGET": "DLD1 NRF2-WT",
    "ASSAY_RESULT": 0.5
  },
  {
    "COMPOUND": "CO[C@@H](C)Cn1c(=O)n(C)c2cnc3ccc(-c4cncc(C(C)(C)O)c4)cc3c21",
    "EXPERIMENTAL_TARGET": "DLD1 NRF2-WT",
    "ASSAY_RESULT": 0
  },
  {
    "COMPOUND": "COc1cc2c(Nc3ccc(Cl)c(Cl)c3F)ncnc2cc1OC[C@@H]1C[C@@H]2CN(C)C[C@@H]2C1",
    "EXPERIMENTAL_TARGET": "DLD1 NRF2-WT",
    "ASSAY_RESULT": 0.1
  },
  {
    "COMPOUND": "O=C1CCC(N2C(=O)c3ccccc3C2=O)C(=O)N1 (centres undefined) [Thalidomide]",
    "EXPERIMENTAL_TARGET": "DLD1 NRF2-WT",
    "ASSAY_RESULT": 0
  },
  {
    "COMPOUND": "COc1cccc2c1C(=O)c1c(O)c3c(c(O)c1C2=O)C[C@@](O)(C(=O)CO)C[C@@H]3O[C@H]1C[C@H](N)[C@@H](O)[C@H](C)O1 [Epirubicin]",
    "EXPERIMENTAL_TARGET": "DLD1 NRF2-WT",
    "ASSAY_RESULT": 0
  },
  {
    "COMPOUND": "Cc1nc(-c2cn3c(n2)-c2ccc(-c4cnn(C(C)(C)C(N)=O)c4)cc2OCC3)n(C(C)C)n1",
    "EXPERIMENTAL_TARGET": "DLD1 NRF2-WT",
    "ASSAY_RESULT": 0.4
  },
  {
    "COMPOUND": "CC1(C)NC(=O)N(c2ccc([N+](=O)[O-])c(C(F)(F)F)c2)C1=O [Nilutamide]",
    "EXPERIMENTAL_TARGET": "DLD1 NRF2-WT",
    "ASSAY_RESULT": 0
  },
  {
    "COMPOUND": "CCn1cc(-c2ccnc3[nH]c(-c4cccc(CN(C)C)c4)cc23)c(-c2ccc(NC(=O)N(C)C)cc2)n1",
    "EXPERIMENTAL_TARGET": "DLD1 NRF2-WT",
    "ASSAY_RESULT": 0
  },
  {
    "COMPOUND": "CC[C@]12C=CCN3CC[C@@]4(c5cc([C@@]6(C(=O)OC)C[C@@H]7C[C@@H](C(C)(F)F)CN(Cc8c6[nH]c6ccccc86)C7)c(OC)cc5N(C)[C@H]4[C@@](O)(C(=O)OC)[C@@H]1OC(C)=O)[C@@H]32",
    "EXPERIMENTAL_TARGET": "DLD1 NRF2-WT",
    "ASSAY_RESULT": 1.3
  },
  {
    "COMPOUND": "CCC/C=C/C=C/C(=O)O[C@H]1/C(=C/C(=O)OC)C[C@H]2C[C@H]([C@@H](C)O)OC(=O)C[C@H](O)C[C@@H]3C[C@H](OC(C)=O)C(C)(C)[C@](O)(C[C@@H]4C/C(=C/C(=O)OC)C[C@H](/C=C/C(C)(C)[C@]1(O)O2)O4)O3",
    "EXPERIMENTAL_TARGET": "DLD1 NRF2-WT",
    "ASSAY_RESULT": 0
  },
  {
    "COMPOUND": "C[C@H](Nc1ncnc2[nH]cnc12)c1cc2ccc(F)cc2nc1-c1ccccn1",
    "EXPERIMENTAL_TARGET": "DLD1 NRF2-WT",
    "ASSAY_RESULT": 0
  },
  {
    "COMPOUND": "O=C(CCNC(=O)c1ccc(OC(F)(F)F)cc1)N[C@@H]1CCCc2ccccc21",
    "EXPERIMENTAL_TARGET": "DLD1 NRF2-WT",
    "ASSAY_RESULT": 0
  },
  {
    "COMPOUND": "O=C1NC(=O)[C@@H](c2cn3c4c(cccc24)CCC3)[C@@H]1c1c[nH]c2ccccc12 [Tivantinib]",
    "EXPERIMENTAL_TARGET": "DLD1 NRF2-WT",
    "ASSAY_RESULT": 1.4
  }
]

====

- Tested on: DLD1 NRF2-WT
- EXPERIMENTAL_PARAMETERS: 72 h; CellTiter-Glo viability
The reader will find reported EC50 viability values listed item by item below.

[
  {
    "SMILES_RECORD": "O=C1CCc2c(Oc3ccc4c(c3)[C@@H]3[C@H](O4)[C@H]3c3nc4cc(C(F)(F)F)ccc4[nH]3)ccnc2N1",
    "EC50 viability": "1.62 µM"
  },
  {
    "SMILES_RECORD": "Cc1nn(C)c(COc2ccc(N3CCN(S(=O)(=O)N(C)C)CC3)cc2)c1-c1cccc2c(CCCOc3cccc4ccccc34)c(C(=O)O)n(CCN3CCOCC3)c12",
    "EC50 viability": "> 50 µM"
  },
  {
    "SMILES_RECORD": "O=C(NC[C@H](O)CN1CCc2ccccc2C1)c1cc(NC2COC2)ncn1",
    "EC50 viability": "> 10 µM"
  }
]

====

- Tested on: DLD1 NRF2-WT
- PROTOCOL_NOTES: drug sensitivity score (DSS) cytotoxicity (DSS score); higher = more toxic; extreme values may be limits of the assay
- EXPERIMENTAL_PARAMETERS: 72 h; CellTox Green cytotoxicity
REPORTED_ENDPOINT: drug sensitivity score

[
  {
    "COMPOUND": "COc1c(OCCCN2CCOCC2)ccc2c1N=C(NC(=O)c1cnc(N)nc1)N1CCN=C21 [Copanlisib]",
    "REPORTED_ENDPOINT": "drug sensitivity score",
    "ASSAY_RESULT": 0.8
  },
  {
    "COMPOUND": "Nc1cc(C(F)(F)F)c(-c2cc(N3CCOCC3)nc(N3CCOCC3)n2)cn1 [Buparlisib]",
    "REPORTED_ENDPOINT": "drug sensitivity score",
    "ASSAY_RESULT": 0.4
  },
  {
    "COMPOUND": "Nc1ncnc2c1nc(Cl)n2[C@@H]1O[C@H](CO)[C@@H](O)[C@H]1O [8-chloro-adenosine]",
    "REPORTED_ENDPOINT": "drug sensitivity score",
    "ASSAY_RESULT": 0
  },
  {
    "COMPOUND": "Cc1ccc(NC(=O)c2ccc(CN3CC[C@H](N(C)C)C3)c(C(F)(F)F)c2)cc1Nc1nccc(-c2cncnc2)n1 [Bafetinib]",
    "REPORTED_ENDPOINT": "drug sensitivity score",
    "ASSAY_RESULT": 0
  }
]

Where do the numbers come from? From the supplement of paper PMC7600603.
